Reported MIC99 values follow for various compounds
# Test system: Candida albicans
# methodNotes: Antifungal activity against Candida albicans MTCC 227 assessed as growth inhibition by broth microdilution method
# Assay type: functional
metricName: MIC99 (µg/mL)

compound | metricName | unitString | assayResult
O=C(/C=C/c1ccc2ccccc2c1)c1cccc([N+](=O)[O-])c1 | MIC99 | µg/mL | 500
COc1ccc(/C=C/C(=O)c2cccc([N+](=O)[O-])c2)c(OC)c1OC | MIC99 | µg/mL | 1000
CC(=O)N1N=C(c2cccc([N+](=O)[O-])c2)CC1/C=C/c1ccccc1 (stereo not given) | MIC99 | µg/mL | 500
O=[N+]([O-])c1cccc(C2=NNC(c3ccc4ccccc4c3)C2)c1 (stereo not given) | MIC99 | µg/mL | 100
O=C(/C=C/c1ccc2c(c1)OCO2)c1cccc([N+](=O)[O-])c1 | MIC99 | µg/mL | 250
CC(=O)N1N=C(c2cccc([N+](=O)[O-])c2)CC1c1ccc2c(c1)OCO2 (stereo not given) | MIC99 | µg/mL | 500
COc1ccc(C2CC(c3cccc([N+](=O)[O-])c3)=NN2C(C)=O)cc1OC (stereo not given) | MIC99 | µg/mL | 200
CCOC(=O)C1C(=O)C=C(c2cccc([N+](=O)[O-])c2)CC1c1cc(OC)c(OC)c(OC)c1 (stereo not given) | MIC99 | µg/mL | 100
O=C(/C=C/C=C/c1ccccc1)c1cccc([N+](=O)[O-])c1 | MIC99 | µg/mL | 250
O=[N+]([O-])c1cccc(C2=NNC(c3ccc4c(c3)OCO4)C2)c1 (stereo not given) | MIC99 | µg/mL | 250
